System: Staphylococcus aureus
assay.name: Antibacterial activity against aminoglycoside-6'-N-acetyltransferase/2''-O-phosphoryltransferase expressing Staphylococcus aureus after 24 hrs by geometric microdilution method
Assay type: functional
Listing of entries alongside the reported MIC.

Query (compound): `NC[C@H]1O[C@H](O[C@H]2[C@H](OCc3ccc4ccccc4c3)[C@@H](O)[C@H](N)C[C@@H]2N)[C@H](N)[C@@H](O)[C@@H]1O` ; field requested: MIC
> 128 µg/mL

Now give it for `NC[C@H]1O[C@H](O[C@H]2[C@H](O)[C@@H](OCc3ccc4ccccc4c3)[C@H](N)C[C@@H]2N)[C@H](N)[C@@H](O)[C@@H]1O` too.
> 128 µg/mL

Quick one: `NC[C@H]1O[C@H](O[C@H]2[C@H](O)[C@@H](OCc3ccc4ccccc4c3)[C@H](N)C[C@@H]2N)[C@H](N)[C@@H](O)[C@@H]1OCc1ccc2ccccc2c1`
32 µg/mL

---

Test system: Staphylococcus aureus
assay.name: Antibacterial activity against NorA pump expressing Staphylococcus aureus after 24 hrs by geometric microdilution method
Type: functional
MIC values by entry

Below: 4 molecules and their reported MIC.
NC[C@H]1O[C@H](O[C@H]2[C@H](O)[C@@H](O)[C@H](N)C[C@@H]2N)[C@H](N)[C@@H](OCc2ccc3ccccc3c2)[C@@H]1OCc1ccc2ccccc2c1 = 8 µg/mL
NC[C@H]1O[C@H](O[C@H]2[C@H](O)[C@@H](O)[C@H](N)C[C@@H]2N)[C@H](N)[C@@H](OCc2ccc3ccccc3c2)[C@@H]1O = > 128 µg/mL
NC[C@H]1O[C@H](O[C@H]2[C@H](O)[C@@H](OCc3ccc4ccccc4n3)[C@H](N)C[C@@H]2N)[C@H](N)[C@@H](OCc2ccc3ccccc3n2)[C@@H]1O = > 128 µg/mL
NC[C@H]1O[C@H](O[C@H]2[C@H](O)[C@@H](OCc3ccccc3)[C@H](N)C[C@@H]2N)[C@H](N)[C@@H](OCc2ccccc2)[C@@H]1OCc1ccccc1 = > 128 µg/mL

Param item = `NC[C@@H]1O[C@H](O[C@H]2[C@@H](O)[C@H](O[C@@H]3[C@@H](O)[C@H](N)C[C@H](N)[C@H]3O[C@H]3O[C@H](CN)[C@@H](O)[C@H](O)[C@H]3N)O[C@@H]2CO)[C@H](N)[C@@H](O)[C@@H]1O` ; retrieve measured MIC.
1 µg/mL

Try this molecule next: `NC[C@H]1O[C@H](O[C@H]2[C@H](O)[C@@H](O)[C@H](N)C[C@@H]2N)[C@H](N)[C@@H](O)[C@@H]1O`
32 µg/mL

Further, for `NC[C@H]1O[C@H](O[C@H]2[C@H](O)[C@@H](OCc3ccc4ccccc4c3)[C@H](N)C[C@@H]2N)[C@H](N)[C@@H](O)[C@@H]1OCc1ccc2ccccc2c1` ?
32 µg/mL

Now consider `NC[C@H]1O[C@H](O[C@H]2[C@H](O)[C@@H](O)[C@H](N)C[C@@H]2N)[C@H](N)[C@@H](O)[C@@H]1OCc1ccc2ccccc2c1` and answer again.
> 128 µg/mL

Entry `NC[C@H]1O[C@H](O[C@H]2[C@H](OCc3ccc4ccccc4c3)[C@@H](O)[C@H](N)C[C@@H]2N)[C@H](N)[C@@H](O)[C@@H]1OCc1ccc2ccccc2c1` please
128 µg/mL

Now the same for `NC[C@H]1O[C@H](O[C@H]2[C@H](O)[C@@H](OCc3ccccc3)[C@H](N)C[C@@H]2N)[C@H](N)[C@@H](OCc2ccccc2)[C@@H]1O`
> 128 µg/mL

Another molecule to look at: `NC[C@H]1O[C@H](O[C@H]2[C@H](O)[C@@H](OCc3ccccn3)[C@H](N)C[C@@H]2N)[C@H](N)[C@@H](OCc2ccccn2)[C@@H]1O`
> 128 µg/mL

---

System: Pseudomonas aeruginosa
assay.name: Antibacterial activity against MexXY expressing Pseudomonas aeruginosa PT629 after 24 hrs by geometric microdilution method
Type: functional
condition: PT629, 24 h
// MIC lookup, one value per entry

Example entries and their recorded answers appear below.
NC[C@H]1O[C@H](O[C@H]2[C@H](O)[C@@H](O)[C@H](N)C[C@@H]2N)[C@H](N)[C@@H](O)[C@@H]1O = > 128 µg/mL
NC[C@H]1O[C@H](O[C@H]2[C@H](O)[C@@H](O[C@H]3O[C@H](CO)[C@@H](O)[C@H](N)[C@H]3O)[C@H](N)C[C@@H]2N)[C@H](N)C[C@@H]1O = 1 µg/mL

From here, focus on the item given below.
Need MIC, item `NC[C@H]1O[C@H](O[C@H]2[C@H](O)[C@@H](OCc3ccc4ccccc4n3)[C@H](N)C[C@@H]2N)[C@H](N)[C@@H](OCc2ccc3ccccc3n2)[C@@H]1OCc1ccc2ccccc2n1`
> 128 µg/mL

---

tested.target: Nucleic Acid
assay.name: Binding affinity to bacterial rRNA A site at 200 uM by isothermal titration calorimetry
property.label: pKd
Convention used: pKd is expressed as -log10 of the molar concentration.

NC[C@H]1O[C@H](O[C@H]2[C@H](O)[C@@H](OCc3ccc4ccccc4c3)[C@H](N)C[C@@H]2N)[C@H](N)[C@@H](OCc2ccc3ccccc3c2)[C@@H]1OCc1ccc2ccccc2c1 = 5.00

pKd for `NC[C@@H]1O[C@H](O[C@H]2[C@@H](O)[C@H](O[C@@H]3[C@@H](O)[C@H](N)C[C@H](N)[C@H]3O[C@H]3O[C@H](CN)[C@@H](O)[C@H](O)[C@H]3N)O[C@@H]2CO)[C@H](N)[C@@H](O)[C@@H]1O` ?
5.81

---

Test system: Pseudomonas aeruginosa
assay.name: Antibacterial activity against MexXY expressing Pseudomonas aeruginosa PT629 after 24 hrs by geometric microdilution method
Format: functional
condition: PT629, 24 h
property.label: MIC

NC[C@H]1O[C@H](O[C@H]2[C@H](O)[C@@H](OCc3ccc4ccccc4c3)[C@H](N)C[C@@H]2N)[C@H](N)[C@@H](OCc2ccc3ccccc3c2)[C@@H]1OCc1ccc2ccccc2c1 = 4 µg/mL

# value lookup — system Pseudomonas aeruginosa, readout MIC, item `NC[C@H]1O[C@H](O[C@H]2[C@H](O)[C@@H](OCc3ccccc3)[C@H](N)C[C@@H]2N)[C@H](N)[C@@H](OCc2ccccc2)[C@@H]1OCc1ccccc1`
> 128 µg/mL

Subsequent entry: `NC[C@H]1O[C@H](O[C@H]2[C@H](OCc3ccc4ccccc4c3)[C@@H](O)[C@H](N)C[C@@H]2N)[C@H](N)[C@@H](O)[C@@H]1OCc1ccc2ccccc2c1`
> 128 µg/mL

Also, `NC[C@H]1O[C@H](O[C@H]2[C@H](O)[C@@H](OCc3ccc4ccccc4c3)[C@H](N)C[C@@H]2N)[C@H](N)[C@@H](O)[C@@H]1OCc1ccc2ccccc2c1` please.
> 128 µg/mL

Subsequent entry: NC[C@@H]1O[C@H](O[C@H]2[C@@H](O)[C@H](O[C@@H]3[C@@H](O)[C@H](N)C[C@H](N)[C@H]3O[C@H]3O[C@H](CN)[C@@H](O)[C@H](O)[C@H]3N)O[C@@H]2CO)[C@H](N)[C@@H](O)[C@@H]1O [FRAMYCETIN]
32 µg/mL

---

Tested on: Staphylococcus aureus
assay.name: Antibacterial activity against aminoglycoside-6'-N-acetyltransferase/2''-O-phosphoryltransferase expressing Staphylococcus aureus after 24 hrs by geometric microdilution method
Assay type: functional
property.label: MIC (µg/mL)
Report the figure in µg/mL without appending any unit label.

Check out these entries, answers already filled in.
NC[C@H]1O[C@H](O[C@H]2[C@H](OCc3ccc4ccccc4c3)[C@@H](O)[C@H](N)C[C@@H]2N)[C@H](N)[C@@H](O)[C@@H]1OCc1ccc2ccccc2c1 = 128
NC[C@H]1O[C@H](O[C@H]2[C@H](O)[C@@H](O)[C@H](N)C[C@@H]2N)[C@H](N)[C@@H](OCc2ccc3ccccc3c2)[C@@H]1OCc1ccc2ccccc2c1 = 8
NC[C@H]1O[C@H](O[C@H]2[C@H](O)[C@@H](O)[C@H](N)C[C@@H]2N)[C@H](N)[C@@H](O)[C@@H]1O [NEAMINE] = 16

For Staphylococcus aureus, provide MIC of `NC[C@H]1O[C@H](O[C@H]2[C@H](O)[C@@H](OCc3ccc4ccccc4n3)[C@H](N)C[C@@H]2N)[C@H](N)[C@@H](OCc2ccc3ccccc3n2)[C@@H]1OCc1ccc2ccccc2n1` please.
128

---

Test system: Acinetobacter lwoffii
assay.name: microbe, parasite or virus in culture
condition: ATCC 17925, 24 h
Description: Antibacterial activity against Acinetobacter lwoffii ATCC 17925 after 24 hrs by geometric microdilution method
MIC less than 60 µg/mL is criterion met; MIC greater than or equal to 60 µg/mL is criterion not met.

NC[C@H]1O[C@H](O[C@H]2[C@H](O)[C@@H](OCc3ccc4ccccc4c3)[C@H](N)C[C@@H]2N)[C@H](N)[C@@H](O)[C@@H]1OCc1ccc2ccccc2c1 = criterion not met
NC[C@H]1O[C@H](O[C@H]2[C@H](O)[C@@H](OCc3ccc4ccccc4n3)[C@H](N)C[C@@H]2N)[C@H](N)[C@@H](OCc2ccc3ccccc3n2)[C@@H]1OCc1ccc2ccccc2n1 = criterion not met
NC[C@@H]1O[C@H](O[C@H]2[C@@H](O)[C@H](O[C@@H]3[C@@H](O)[C@H](N)C[C@H](N)[C@H]3O[C@H]3O[C@H](CN)[C@@H](O)[C@H](O)[C@H]3N)O[C@@H]2CO)[C@H](N)[C@@H](O)[C@@H]1O = criterion met
NC[C@H]1O[C@H](O[C@H]2[C@H](OCc3ccc4ccccc4c3)[C@@H](O)[C@H](N)C[C@@H]2N)[C@H](N)[C@@H](O)[C@@H]1OCc1ccc2ccccc2c1 = criterion met
NC[C@H]1O[C@H](O[C@H]2[C@H](O)[C@@H](O[C@H]3O[C@H](CO)[C@@H](O)[C@H](N)[C@H]3O)[C@H](N)C[C@@H]2N)[C@H](N)C[C@@H]1O = criterion met

Now consider the entry below.
Bench note: check whether `NC[C@H]1O[C@H](O[C@H]2[C@H](O)[C@@H](O)[C@H](N)C[C@@H]2N)[C@H](N)[C@@H](OCc2ccc3ccccc3c2)[C@@H]1OCc1ccc2ccccc2c1` shows MIC below 60 µg/mL
criterion met

The measurements presented in this section are drawn from ChEMBL document CHEMBL1156794.
